Sourced from patent US11230526B1

The reader will find reported pEC50 values listed item by item below.
- tgt: Human GPR120 short form (Homo sapiens)
- Construct: expressed in transfected cells
- Sequence (Q5NUL3 1-361): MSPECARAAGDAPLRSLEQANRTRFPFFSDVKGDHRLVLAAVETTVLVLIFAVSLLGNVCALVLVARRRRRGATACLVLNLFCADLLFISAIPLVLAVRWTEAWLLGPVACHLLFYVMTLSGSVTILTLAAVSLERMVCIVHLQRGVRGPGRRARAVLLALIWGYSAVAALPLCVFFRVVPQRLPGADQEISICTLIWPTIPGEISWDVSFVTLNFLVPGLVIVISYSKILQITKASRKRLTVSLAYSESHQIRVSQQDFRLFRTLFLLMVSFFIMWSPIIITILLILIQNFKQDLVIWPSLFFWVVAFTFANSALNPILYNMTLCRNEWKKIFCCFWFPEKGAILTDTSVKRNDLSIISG
- test name: Human GPR120 calcium flux assay, Procedure Calcium B (4200 cells/well)
- Assay type: cell-based
Lab note — pEC50 values are minus log10 of concentrations in M.

> print(dat)
                                   compound                                     tgt  readout.type  quantitative.readout
1  O=C(O)CCc1c(F)c(F)c(OCC2=C(c3ccc(Cl)cc3)CCCC2)c(F)c1F [Compound 479]  Human GPR120 short form (Homo sapiens)         pEC50                  7.14
2  O=C(O)CCc1cc(F)c(OCC2=C(c3ccc(Cl)s3)CCC(F)(F)C2)c(F)c1 [Compound 543]  Human GPR120 short form (Homo sapiens)         pEC50                  6.72
3  COc1ccc(C2=C(COc3c(F)cc(CCC(=O)O)cc3F)CCC2)cn1 [Compound 221]  Human GPR120 short form (Homo sapiens)         pEC50                  6.80
4  Cc1ccc(C2=C(COc3cc(C)c(CCC(=O)O)cc3F)CCC2)cc1F [Compound 264]  Human GPR120 short form (Homo sapiens)         pEC50                  6.99
5  Cc1c(CCC(=O)O)ccc(OCC2=C(c3ccc(Cl)cc3)CCC2)c1C [Compound 15]  Human GPR120 short form (Homo sapiens)         pEC50                  7.15

Name the recorded pEC50 of the item O=C(O)CCc1ccc(OCC2=C(c3ccc(Br)cc3)CC(F)(F)C2)cc1Cl [Compound 393] in your answer.
6.54

Given the compound CSCCCCc1cc(CCC(=O)O)ccc1OCC1=C(c2ccc(Cl)cc2)CCC(F)(F)C1 [Compound 565] , write its reported pEC50.
5.41

Give recorded pEC50. Cc1c(CCC(=O)O)ccc(OCC2=C(c3ccncc3)CCC2)c1C [Compound 139]
5.61

Provide pEC50 value for the following compound: CC(C)C1=C(COc2ccc(CCC(=O)O)cc2)CCCC1 [Compound 585]
5.78

Tell us which pEC50 value is on record for CC1(C)CCC(C2CCCC2)=C(COc2ccc(CCC(=O)O)c(Cl)c2)C1 [Compound 605]
5.93

###

- tgt: Human GPR120 short form (Homo sapiens, UniProt Q5NUL3)
- Construct: expressed in transfected cells
- Sequence (Q5NUL3 1-361): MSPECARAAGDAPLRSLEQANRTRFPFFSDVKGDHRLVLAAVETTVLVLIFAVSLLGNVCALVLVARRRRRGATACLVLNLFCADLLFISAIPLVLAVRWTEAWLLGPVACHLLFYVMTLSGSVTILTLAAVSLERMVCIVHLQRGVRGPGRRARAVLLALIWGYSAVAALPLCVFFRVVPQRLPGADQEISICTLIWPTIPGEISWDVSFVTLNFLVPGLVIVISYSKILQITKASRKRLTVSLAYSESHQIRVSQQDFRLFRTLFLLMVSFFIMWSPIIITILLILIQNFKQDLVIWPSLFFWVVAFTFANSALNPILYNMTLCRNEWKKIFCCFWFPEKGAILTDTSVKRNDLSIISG
- test name: Human GPR120 calcium flux assay, Procedure Calcium B (4200 cells/well)
- Assay type: cell-based
readout type: EC50 (nM)
# unit: nM | format: bare number

> print(dat)
                                   compound  endpoint.unit  quantitative.readout
1  Cc1c(CCC(=O)O)ccc(OCC2=C(C3CCCC3)CCC(F)(F)CC2)c1C             nM                   188
2  O=C(O)CCc1ccc(OCC2=C(CC3CCCC3)CCC2)cc1C(F)(F)F             nM                  1190

Quickly give me recorded EC50 for CC(C)CC1=C(COc2ccc(CCC(=O)O)c(C(F)(F)F)c2)CC(F)(F)C1
1650

Consider the compound N#Cc1ccc(C2=C(COc3c(F)cc(CCC(=O)O)cc3F)CC(F)(F)CC2)s1 and give its recorded EC50.
641

Identify the reported EC50 for the following entry. O=C(O)CCc1ccc(OCC2=C(c3ccc(Cl)cc3)CCC2C(F)(F)F)c(F)c1F (centres unmarked)
311

Give the value of EC50 reported for the following: Cc1c(CCC(=O)O)ccc(OCC2=C(c3ccccc3Cl)CCC2)c1C
136

Give the value of EC50 reported for the following: O=C(O)CCc1ccc(OCC2=C(C3CCCC3)CCC(F)(F)C2)cc1Cl
148

Recall and state the measured EC50 for O=C(O)CCc1ccc(OCC2=C(C3CCCCC3)CCC2)cc1C(F)(F)F .
1700

Look up and report measured EC50 for this entry: O=C(O)CCc1ccc(OCC2=C(C3CCCC3)CCC2)c(F)c1
143

Provide only the value of recorded EC50 for Cc1cc(OCC2=C(c3ccc(Br)cc3)CC(F)(F)C2)c(F)cc1CCC(=O)O
223
